# IC50 annotations
measurement_target: thromboxane A2 synthetase (Homo sapiens, UniProt P24557)
Sequence (P24557 1-533): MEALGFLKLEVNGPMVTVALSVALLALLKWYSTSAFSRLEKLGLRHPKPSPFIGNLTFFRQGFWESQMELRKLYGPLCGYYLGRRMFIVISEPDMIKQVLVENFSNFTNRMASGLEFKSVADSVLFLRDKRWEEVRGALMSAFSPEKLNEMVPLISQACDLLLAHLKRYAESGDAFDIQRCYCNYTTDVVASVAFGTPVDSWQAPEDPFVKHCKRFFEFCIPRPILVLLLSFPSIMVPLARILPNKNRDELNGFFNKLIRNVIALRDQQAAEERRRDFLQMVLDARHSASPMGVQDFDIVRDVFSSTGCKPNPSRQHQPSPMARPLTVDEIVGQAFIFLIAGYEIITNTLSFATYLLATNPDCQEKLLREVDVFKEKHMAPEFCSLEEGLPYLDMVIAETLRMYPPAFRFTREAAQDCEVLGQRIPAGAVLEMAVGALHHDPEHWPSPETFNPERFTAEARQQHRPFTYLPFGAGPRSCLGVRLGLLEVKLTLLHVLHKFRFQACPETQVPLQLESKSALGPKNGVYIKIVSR

- compound: "O=C(O)CCCc1ccc(C(NS(=O)(=O)c2ccc(Cl)cc2)C2CCCC2)cc1 (centres unmarked)"
  measurement_target: "thromboxane A2 synthetase (Homo sapiens, UniProt P24557)"
  IC50 [µM]: 1.6
- compound: "CC(C)C(NS(=O)(=O)c1ccc(Cl)cc1)c1ccc(CCCC(=O)O)cc1 (centres unmarked)"
  measurement_target: "thromboxane A2 synthetase (Homo sapiens, UniProt P24557)"
  IC50 [µM]: 2
- compound: "O=C(O)CCCc1ccc(C(Cc2ccccc2)NS(=O)(=O)c2ccc(Cl)cc2)cc1 (centres unmarked)"
  measurement_target: "thromboxane A2 synthetase (Homo sapiens, UniProt P24557)"
  IC50 [µM]: 4
- compound: "O=C(O)Cc1ccc(CCNS(=O)(=O)c2ccc(Cl)cc2)cc1 [Reference compound, reference compound]"
  measurement_target: "thromboxane A2 synthetase (Homo sapiens, UniProt P24557)"
  IC50 [µM]: 40
- compound: "O=C(O)CCCc1ccc(C(NS(=O)(=O)c2ccc(Cl)cc2)C2CCCCC2)cc1 (centres unmarked)"
  measurement_target: "thromboxane A2 synthetase (Homo sapiens, UniProt P24557)"
  IC50 [µM]: 3.2

* * *

Examples of compounds with documented pIC50 follow.
measurement_target: thromboxane A2 receptor (Cavia porcellus)
Construct: platelet-rich plasma; endogenous in cells
Sequence (A0A286Y4I8 1-347): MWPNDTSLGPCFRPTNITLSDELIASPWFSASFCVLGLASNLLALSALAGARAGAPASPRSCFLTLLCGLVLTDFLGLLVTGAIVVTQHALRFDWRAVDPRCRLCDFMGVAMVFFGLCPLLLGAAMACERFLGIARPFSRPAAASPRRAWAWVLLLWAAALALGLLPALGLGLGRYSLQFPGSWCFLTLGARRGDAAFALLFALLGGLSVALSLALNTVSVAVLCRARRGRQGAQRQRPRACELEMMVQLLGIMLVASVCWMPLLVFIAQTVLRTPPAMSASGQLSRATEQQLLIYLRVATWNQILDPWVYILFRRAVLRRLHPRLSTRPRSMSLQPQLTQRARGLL
method_notes: Thromboxane A2 antagonistic effect: inhibition of U-46619-induced platelet aggregation in guinea-pig platelet-rich plasma
reported_conditions: guinea-pig PRP, U-46619 2 μg/ml, 2 min at 37° C.; read-out: IC50 (50% inhibition against platelet aggregation)
pIC50: −log10 of the molar value.

- compound: "O=C(O)CCCc1ccc(C(Cc2ccccc2)NS(=O)(=O)c2ccc(F)cc2)cc1 (stereo not drawn)"
  pIC50: 6.49
- compound: "O=C(O)CCCc1ccc(C(Cc2ccccc2)NS(=O)(=O)c2ccc(Br)cc2)cc1 (stereo not drawn)"
  pIC50: 7.49
- compound: "CCCCCCCC(NS(=O)(=O)c1ccc(Cl)cc1)c1ccc(CCCC(=O)O)cc1 (stereo not drawn)"
  pIC50: 6.10
- compound: "O=C(O)CCCc1ccc(C(CCC2CCCCC2)NS(=O)(=O)c2ccc(Cl)cc2)cc1 (stereo not drawn)"
  pIC50: 6.00
- compound: "O=C(O)CCCc1ccc(C(Cc2ccc(Cl)cc2)NS(=O)(=O)c2ccc(Cl)cc2)cc1 (stereo not drawn)"
  pIC50: 6.20
- compound: "CC(C)(C)CC(NS(=O)(=O)c1ccc(Cl)cc1)c1ccc(CCCC(=O)O)cc1 (stereo not drawn)"
  pIC50: 6.49
- compound: "CCCCCC(NS(=O)(=O)c1ccc(Cl)cc1)c1ccc(CCCC(=O)O)cc1 (stereo not drawn)"
  pIC50: 6.40
- compound: "O=C(O)CCc1ccc(C(Cc2ccccc2)NS(=O)(=O)c2ccc(Cl)cc2)cc1 (stereo not drawn)"
  pIC50: 6.60
- compound: "Cc1ccc(CC(NS(=O)(=O)c2ccc(Cl)cc2)c2ccc(CCCC(=O)O)cc2)cc1 (stereo not drawn)"
  pIC50: 6.49
- compound: "CC(C)CCCC(NS(=O)(=O)c1ccc(Cl)cc1)c1ccc(CCCC(=O)O)cc1 (stereo not drawn)"
  pIC50: 6.60
- compound: "O=C(O)CCCc1ccc(C(Cc2ccc(F)cc2)NS(=O)(=O)c2ccc(Cl)cc2)cc1 (stereo not drawn)"
  pIC50: 6.80
- compound: "O=C(O)CCCc1ccc(C(Cc2ccccc2)NS(=O)(=O)c2ccccc2)cc1 (stereo not drawn)"
  pIC50: 6.49
